Measured GI50 (U251 CNS)

Use the examples below as a reference point.
{"molecule": "O=C1/C(=C/c2ccc([N+](=O)[O-])s2)Oc2ccccc21", "recordedMeasurement": "561 nM"}
{"molecule": "CCCCCCNC(=O)Oc1ccc(/C(=C(\\C)c2ccccc2)c2ccc(OCCN3CCCCC3)cc2)cc1", "recordedMeasurement": "1810 nM"}
{"molecule": "CS(=O)c1ccc(-c2nc(-c3ccc(F)cc3)c(-c3ccncc3)[nH]2)cc1 (stereo not given)", "recordedMeasurement": "38000 nM"}
{"molecule": "CC(C)=CCC/C(C)=C/CC/C(=C/COP(=O)(OCc1ccc([N+](=O)[O-])o1)N(C)CCCCCl)CC=C(C)C (stereo not given)", "recordedMeasurement": "2780 nM"}

# get_value(readout= GI50, system= U251 CNS) for CCN(Cc1nc2cc(C(F)(F)F)ccc2nc1-c1ccccc1)c1ccc(OC)c(OC)c1
6490 nM

---

System: DU-145 prostate
experimentalProtocol: NCI tumour cell line growth inhibition, 48 h
readoutLabel: TGI

{"molecule": "COc1cc(/C=C2/SC(c3ccccc3)N(c3ccc(Cl)cc3)C2=O)cc(OC)c1OC (stereo unspecified)", "readoutLabel": "TGI", "recordedMeasurement": "> 100 µM"}
{"molecule": "Cc1ncc(CO)c(CN)c1O", "readoutLabel": "TGI", "recordedMeasurement": "> 100 µM"}
{"molecule": "CCN(Cc1nc2cc(C(F)(F)F)ccc2nc1-c1ccccc1)c1ccc(OC)c(OC)c1", "readoutLabel": "TGI", "recordedMeasurement": "31.9 µM"}
{"molecule": "CCCC(=O)N/S(=N/S(=O)(=O)c1ccc(Cl)cc1)C(Cl)(Cl)Cl (stereo unspecified)", "readoutLabel": "TGI", "recordedMeasurement": "> 100 µM"}

Please state, for each entry, its recorded TGI.
1. CCOC(=O)CNC(=O)CCCn1c(=O)c2c3ccccc3n(C)c2n2nnc(-c3ccccc3)c12
2. COc1ccc(OC)c(-c2cc(-c3ccccc3)nn2-c2ccc(S(N)(=O)=O)cc2)c1
3. CC1(C)C=C(/C=N/Nc2ccc(Br)cc2)C(C#N)=C(O)C1(C#N)C#N
4. COc1cnc2c(c1)C(=O)c1c-2n(CCCN2CCNCC2)c(=O)c2cc(Cl)ccc12
5. CS(=O)c1ccc(-c2nc(-c3ccc(F)cc3)c(-c3ccncc3)[nH]2)cc1 (stereo unspecified)
6. CCCCCCCCCCCCOC1C(C(COC2OC(C(O)CN3CCCCC3)C3OC(C)(C)OC23)NC(=O)Nc2ccccc2)OC2OC(C)(C)OC21 (stereo unspecified)

["> 50 µM", "29.5 µM", "> 100 µM", "1.2 µM", "> 100 µM", "25.7 µM"]

Please state, for each entry, its recorded TGI.
1. Cc1cc(NC(=O)C(=O)Cc2cnc3ccccc3n2)c(S(=O)(=O)O)cc1Cl
2. Cn1c2ccccc2c(=O)c2c(O)cc3c(c21)C=CC1(CCCC1)O3
3. COc1ccc(C2SC(N)=Nc3c2c(C)nn3C(=O)c2ccc(Cl)cc2)cc1 (stereo unspecified)
4. c1ccc([C@@H]2N[C@@]3(CO[Si](c4ccccc4)(c4ccccc4)c4ccccc4)CC[C@H]4CN[C@@H]2[C@H]43)cc1
5. C/C(=N\NS(=O)(=O)c1ccc(C)cc1)C(CN(C)C)C(c1ccccc1)c1c(O)c2ccccc2oc1=O (stereo unspecified)
6. CC(C)CNc1nc(N)[nH]c(=O)c1NC=O
7. CC1=NN2C(=O)CC(=O)N=C2S1
8. COC1C=C(NCC2(CO)CCC2)NC(N)=N1 (stereo unspecified)

1. > 100 µM
2. > 100 µM
3. > 10 µM
4. 21.8 µM
5. > 100 µM
6. > 100 µM
7. > 100 µM
8. > 100 µM

Please state, for each entry, its recorded TGI.
1. COc1ccc2c(c1)N(C(C)=O)CN1C(=O)CCC21 (stereo unspecified)
2. CCCCSCc1nc2nc(Cl)c(Cl)nc2[nH]1
3. COc1ccc(Nc2nc(N)c(C(=O)c3ccc(OC)cc3)s2)cc1

1. > 100 µM
2. > 100 µM
3. 6.94 µM
